molecular target: recombinant human EP-2 receptor (Homo sapiens); construct: stably transfected with full length cDNA encoding human Prostaglandin E2; test: In vitro antagonist potency against recombinant human prostaglandin E2 (EP-2) receptor in CHO cells (cAMP); conditions: CHO cells expressing recombinant human EP-2 receptor, stimulated with PGE2 5 nM; cAMP readout; Ki from IC50 by Cheng-Prusoff; read-out: EP2 Ki
Sequence (P43116 whole entry): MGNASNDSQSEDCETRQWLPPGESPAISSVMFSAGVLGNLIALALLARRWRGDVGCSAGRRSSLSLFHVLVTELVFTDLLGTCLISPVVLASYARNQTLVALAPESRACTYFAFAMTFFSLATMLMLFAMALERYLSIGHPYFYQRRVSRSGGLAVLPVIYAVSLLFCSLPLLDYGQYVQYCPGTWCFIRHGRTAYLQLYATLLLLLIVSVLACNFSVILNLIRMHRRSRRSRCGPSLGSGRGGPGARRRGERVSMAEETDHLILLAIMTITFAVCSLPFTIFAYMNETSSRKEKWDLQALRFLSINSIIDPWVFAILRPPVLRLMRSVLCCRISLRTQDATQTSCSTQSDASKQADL
pKi: −log10 of the molar value.
observable: pKi

molecule	target.system	pKi
O=C(c1ccc(F)cc1)N1CC(Cn2nnc(-c3ccccc3F)n2)(C(=O)O)C1 [Example 13]	recombinant human EP-2 receptor (Homo sapiens)	7.06

[I] CCOc1ccccc1C(=O)N1CC(Cn2nnc(-c3ccccc3)n2)(C(=O)O)C1 [Example 51]
[II] O=C(c1ccc(Cl)cc1)N1CC(Cn2nnc(-c3cccc(Cl)c3)n2)(C(=O)O)C1 [Example 2]
[III] COc1cc(OC)cc(C(=O)N2CC(Cn3nnc(-c4ccc(C(F)(F)F)cc4)n3)(C(=O)O)C2)c1 [Example 46]
Enquiry: Rank the items in ascending order with respect to pKi. Give your ranking as a list of the labels in the requested order.
Return: I, III, II
